I'd appreciate it if you could supply solubility at 5 min values for the items below.
# Protocol summary: Kinetic turbidimetric aqueous solubility
# Assay type: physicochemical
# Condition: aqueous buffer, kinetic from dmso stock; PBS buffer, final DMSO 2%, absorbance 620 nm; read-out: Kinetic Turbidimetric Aqueous Solubility at room temperature for 5 min

Q: Dear colleague, please send me the reported solubility at 5 min for `Cc1ccc(-c2ncc(CNc3cc(-c4cn[nH]c4)nc(C(F)(F)F)c3)cn2)cc1C#N` when you can.
Result: > 10 µM

Q: State, in one line, measured solubility at 5 min of `CC(C)Oc1ccc(-c2ncc(CNc3cc(-n4ccnc4)nc(C(F)(F)F)c3)cn2)cc1Cl`
Result: > 10 µM

Q: State its solubility at 5 min: `N#Cc1cc(-c2ncc(CNc3cc(-c4cn[nH]c4)nc(C(F)(F)F)c3)cn2)ccc1F`
Result: > 25 µM

Q: Answer with the recorded solubility at 5 min for the compound listed here: `CC(C)Oc1ccc(-c2ncc(CNc3cc(-c4cn[nH]c4)nc(C(F)(F)F)c3)cn2)cc1F`
Result: > 10 µM

Q: Dear colleague, please send me the reported solubility at 5 min for `CC(C)Oc1ccc(-c2cnc(CNc3cc(-c4cn[nH]c4)nc(C(F)(F)F)c3)cn2)cc1` when you can.
Result: > 25 µM

Q: Specify solubility at 5 min for `FC(F)(F)c1cc(NCc2cn(-c3ccc(Oc4ccccc4)cc3)nn2)cc(-c2cn[nH]c2)n1` and stop.
Result: > 25 µM

Q: Output solubility at 5 min of `FC(F)(F)c1cc(NCc2cn(-c3ccc(Oc4ccccc4)cc3)nn2)cc(-n2cncn2)n1`
Result: > 25 µM

Q: Please supply the value of reported solubility at 5 min for the item `FC(F)(F)c1nc(SCc2nc3cc(Oc4ccccc4)ccc3[nH]2)cc(-n2ccnc2)n1`
Result: > 10 µM

---

# Measured target: PqsR (Pseudomonas aeruginosa)
# Construct: transfected with pEAL08-2 plasmid encoding pqsR under control of promoter tac
# Sequence (Q9I4X0 whole entry): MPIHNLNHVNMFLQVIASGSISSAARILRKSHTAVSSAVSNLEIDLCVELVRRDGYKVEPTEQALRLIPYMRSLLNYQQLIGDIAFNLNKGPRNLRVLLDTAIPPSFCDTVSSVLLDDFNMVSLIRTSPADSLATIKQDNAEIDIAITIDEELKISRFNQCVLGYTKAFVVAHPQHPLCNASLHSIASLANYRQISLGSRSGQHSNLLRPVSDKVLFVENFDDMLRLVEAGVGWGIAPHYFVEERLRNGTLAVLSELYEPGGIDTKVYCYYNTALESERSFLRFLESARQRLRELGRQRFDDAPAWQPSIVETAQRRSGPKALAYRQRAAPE
# Protocol summary: PqsR reporter gene assay in E. coli (β-galactosidase)
Observed property: IC50

Q: Please give measured IC50 of the following entry: `CC(C)Oc1ccc(-c2ncc(CNc3cc(-n4ccnc4)nc(C(F)(F)F)c3)s2)cc1`
Result: ≤ 50 nM

Q: Identify the reported IC50 for the following entry. `CC(C)Oc1ccc(-c2ncc(CNc3cc(-c4cc[nH]n4)nc(C(F)(F)F)c3)s2)cc1`
Result: 51 to 250 nM

Q: Look up IC50 of `FC(F)(F)c1cc(NCc2cn(-c3ccc(Oc4ccccc4)cc3)nn2)cc(-n2cncn2)n1` and report it.
Result: ≤ 50 nM

Q: Respond only with IC50 recorded for `FC(F)(F)c1cc(NCc2cn(-c3ccc(Oc4ccccc4)cc3)nn2)cc(-c2cn[nH]c2)n1`
Result: 51 to 250 nM

Q: Let me know recorded IC50 for `CC(C)Oc1ccc(-n2cc(CNc3cc(C#N)nc(-c4cn[nH]c4)c3)nn2)cc1Cl` , thanks.
Result: ≤ 50 nM

Q: For `CC(C)Oc1ccc(-c2ncc(CNc3cc(-c4cnn(C)c4)nc(C(F)(F)F)c3)s2)cc1` , write its IC50.
Result: 51 to 250 nM

Q: Indicate the recorded IC50 value for this compound: `FC(F)(F)c1cc(NCc2cn(-c3ccc(Oc4ccccc4)cc3)nn2)cc(-n2ccnc2)n1`
Result: ≤ 50 nM

Q: Read off the recorded IC50 for `CC(C)Oc1ccc(-c2ncc(CNc3cc(-n4cncn4)nc(C(F)(F)F)c3)s2)cc1Cl`
Result: ≤ 50 nM
